system-under-test: full-length recombinant mouse PAD4 (mouse) (UniProt Q9Z183)
Sequence (Q9Z183 whole entry): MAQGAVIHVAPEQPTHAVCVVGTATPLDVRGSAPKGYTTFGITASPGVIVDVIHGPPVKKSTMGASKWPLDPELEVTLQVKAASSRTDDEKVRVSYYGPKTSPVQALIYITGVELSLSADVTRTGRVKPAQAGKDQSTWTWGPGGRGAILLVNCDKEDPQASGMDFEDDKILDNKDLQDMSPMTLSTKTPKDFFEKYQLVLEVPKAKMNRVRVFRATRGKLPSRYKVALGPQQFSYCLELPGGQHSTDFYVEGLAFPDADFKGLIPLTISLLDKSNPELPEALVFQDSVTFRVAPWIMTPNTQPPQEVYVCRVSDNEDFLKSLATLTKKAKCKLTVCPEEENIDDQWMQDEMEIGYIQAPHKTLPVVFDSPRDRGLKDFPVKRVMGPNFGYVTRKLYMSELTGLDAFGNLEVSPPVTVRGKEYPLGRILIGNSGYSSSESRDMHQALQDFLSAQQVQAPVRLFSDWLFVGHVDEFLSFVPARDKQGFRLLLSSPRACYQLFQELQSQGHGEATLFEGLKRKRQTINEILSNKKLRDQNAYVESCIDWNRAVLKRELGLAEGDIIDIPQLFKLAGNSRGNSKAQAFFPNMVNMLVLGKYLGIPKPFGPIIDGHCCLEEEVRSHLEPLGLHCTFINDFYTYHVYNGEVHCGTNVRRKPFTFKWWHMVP
procedure-summary: ELISA, mouse PAD4 on plate, antibody 0.015625 ug/mL
absorbance 490 nm/630 nm of 2 OD or higher: Fulfilled. Under 2 OD: Not fulfilled.

binder: G9 (antibody, IgG1, V domains shown) VH: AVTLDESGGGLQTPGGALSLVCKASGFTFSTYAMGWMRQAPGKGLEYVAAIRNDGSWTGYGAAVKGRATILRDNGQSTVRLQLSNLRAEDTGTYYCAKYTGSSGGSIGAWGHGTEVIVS VL: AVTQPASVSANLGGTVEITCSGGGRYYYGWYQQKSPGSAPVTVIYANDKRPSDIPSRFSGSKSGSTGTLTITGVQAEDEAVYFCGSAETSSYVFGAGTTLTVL
discrete-label: Fulfilled

State whether the measured absorbance 490 nm/630 nm reaches 2 OD, counting equality as reaching it, for H7 (antibody, IgG1, V domains shown) VH: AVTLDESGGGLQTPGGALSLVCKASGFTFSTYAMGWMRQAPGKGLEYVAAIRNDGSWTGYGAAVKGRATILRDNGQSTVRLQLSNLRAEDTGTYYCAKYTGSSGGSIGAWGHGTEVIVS VL: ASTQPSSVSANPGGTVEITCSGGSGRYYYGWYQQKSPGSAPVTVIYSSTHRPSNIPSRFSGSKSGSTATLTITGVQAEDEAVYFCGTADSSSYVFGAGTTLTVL
Fulfilled

State whether the measured absorbance 490 nm/630 nm reaches 2 OD, counting equality as reaching it, for E9 (antibody, IgG1, V domains shown) VH: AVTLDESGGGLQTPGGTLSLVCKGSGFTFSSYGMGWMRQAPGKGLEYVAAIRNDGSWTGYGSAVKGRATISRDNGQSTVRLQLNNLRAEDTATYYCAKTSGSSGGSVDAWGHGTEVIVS VL: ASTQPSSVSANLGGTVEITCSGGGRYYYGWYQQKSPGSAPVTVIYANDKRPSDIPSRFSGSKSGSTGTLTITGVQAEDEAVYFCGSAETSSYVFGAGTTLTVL
Not fulfilled

State whether the measured absorbance 490 nm/630 nm reaches 2 OD, counting equality as reaching it, for G8 (antibody, IgG1, V domains shown) VH: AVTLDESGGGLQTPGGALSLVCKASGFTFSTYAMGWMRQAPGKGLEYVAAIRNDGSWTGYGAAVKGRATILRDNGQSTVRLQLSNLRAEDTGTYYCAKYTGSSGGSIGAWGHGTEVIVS VL: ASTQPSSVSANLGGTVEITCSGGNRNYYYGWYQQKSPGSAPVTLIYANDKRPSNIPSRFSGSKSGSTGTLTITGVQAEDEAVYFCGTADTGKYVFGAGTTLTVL
Fulfilled

State whether the measured absorbance 490 nm/630 nm reaches 2 OD, counting equality as reaching it, for G6 (antibody, IgG1, V domains shown) VH: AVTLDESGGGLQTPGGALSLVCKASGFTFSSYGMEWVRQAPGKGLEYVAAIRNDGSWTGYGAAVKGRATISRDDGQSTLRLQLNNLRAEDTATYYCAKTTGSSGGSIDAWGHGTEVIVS VL: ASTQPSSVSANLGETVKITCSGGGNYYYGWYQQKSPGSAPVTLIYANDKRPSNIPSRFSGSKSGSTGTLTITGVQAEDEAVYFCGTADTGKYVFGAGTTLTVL
Not fulfilled
